Assay: chemical genetic growth profiling, strain panel (AID 1159580);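 further: tested at 20 µM; growth read once vehicle control cultures reached saturation at 30 °C; 1 = growth at the plate median or of vehicle wells; lower values mean less growth of the strain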
Conditions: S. cerevisiae deletion strains, growth OD, locus YNL298W, strain CLA4, active compounds read low
Out of some 5,500 compounds screened, about 2,000 (36%) were called active. Roughly 18% stayed inconclusive and do not appear here. The list shows a part of the results.
quantity: normalized growth
Numbers only.

COC1=CC(=O)C=C(OC)C1=O	0.999

List reported normalized growth for each of these compounds:
1. CSCCC(N)C(=O)NC(CC(C)C)C(=O)NC(Cc1ccccc1)C(=O)O (centres undefined)
2. C[N+]1(C)C[C@H](O)[C@H](C(=O)[O-])C1
3. CC1(C)C(O)CC(=O)C2(C)C1CC(O)C1(C)C2CCC2(C)C(c3ccoc3)OC(=O)C3OC321 (centres undefined)
4. Nc1ccc(S(=O)(=O)Nc2ncccn2)cc1
5. NC(=O)c1ccc([N+](=O)[O-])cc1Cl
6. NC[C@H]1O[C@H](O[C@H]2[C@H](O)[C@@H](O[C@H]3O[C@H](CO)[C@@H](O)[C@H](N)[C@H]3O)[C@H](N)C[C@@H]2N)[C@H](N)[C@@H](O)[C@@H]1O
7. C[C@H]1[C@H](C)CC[C@]2(C(=O)O)CC[C@]3(C)C(=CCC4[C@@]5(C)C[C@@H](O)[C@H](O)[C@@](C)(CO)C5[C@H](O)C[C@]43C)[C@H]12 (some centres undefined)

Result:
1: 1; 2: 1; 3: 1.02; 4: 1; 5: 0.98; 6: 0.984; 7: 0.869

----------
Provide the recorded normalized growth for the entries that follow.
Assay: chemical genetic growth profiling, strain panel (AID 1159580)
Details: S. cerevisiae deletion strains, growth OD, locus YOR080W, strain dia2, active compounds read low
About 2,000 (36%) of roughly 5,500 compounds were called active. Roughly 18% stayed inconclusive and do not appear here. Some of the results follow.
One number for each entry.

C[C@H]1O[C@H](O[C@H]2[C@H](O)[C@@H](O)[C@@H](O[C@H]3[C@H](O)[C@@H](O)C(O)O[C@@H]3CO)O[C@@H]2CO)[C@H](O)[C@@H](O)[C@@H]1N[C@H]1C=C(CO)[C@@H](O)[C@H](O)[C@H]1O (stereo not given in full)	0.98
C=CCSSSCC=C	0.972
COc1ccc(-c2cc(=O)c3c(O)cc(O)c(-c4cc(-c5cc(=O)c6c(O)cc(O)cc6o5)ccc4OC)c3o2)cc1	1.02
NS(=O)(=O)c1cc2c(cc1C(F)(F)F)NC(Cc1ccccc1)NS2(=O)=O (stereo not given)	0.982
CCCc1nn(C)c2c(=O)[nH]c(-c3cc(S(=O)(=O)N4CCN(C)CC4)ccc3OCC)nc12	0.996
COc1cc2c(cc1OC)-c1c(oc3cc(O)cc(O)c3c1=O)CO2	1.02

List reported normalized growth for each of these molecules:
1. CC1=C2C(O)C(=O)OC3CC4C(C)(C)C(=O)C=C[C@]4(C)C(CC1)[C@]23C (stereo not given in full)
2. CN(C)CC[C@H](c1ccc(Cl)cc1)c1ccccn1
3. C=CCSC[C@@H](N)C(=O)O
4. COP(N)(=O)SC (stereo not given)
5. Nc1ccc(S(=O)(=O)Nc2ncccn2)cc1

Result:
1. 1.02
2. 0.997
3. 1
4. 1
5. 0.972

List reported normalized growth for each of these molecules:
1. C=CCSCC=C
2. CC(C)(C)NCC(O)COc1cccc2c1CCCC2=O (stereo not given)
3. NC[C@H]1O[C@H](O[C@H]2[C@H](O)[C@@H](O[C@H]3O[C@H](CO)[C@@H](O)[C@H](N)[C@H]3O)[C@H](N)C[C@@H]2N)[C@H](N)[C@@H](O)[C@@H]1O
4. Cc1ccc(-c2nc3ccc(C)cn3c2CC(=O)N(C)C)cc1

Result:
1: 0.974; 2: 1; 3: 1; 4: 0.998

----------
Test: chemical genetic growth profiling, strain panel (AID 1159580);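 further: tested at 20 µM; growth read once vehicle control cultures reached saturation at 30 °C; 1 = growth at the plate median or of vehicle wells; lower values mean less growth of the strain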
Settings: S. cerevisiae deletion strains, growth OD, locus YNL153C, strain GIM3, active compounds read low
The campaign covered roughly 5,500 compounds. About 2,000 (36%) were called active. About 18% were inconclusive and are not listed. The list shows a part of the results.
Returns: string. Value is Y if measured normalized growth is below 1, and N if it is greater than or equal to it.

Worked cases, answers included:
CC(C)=CC1C(CO)C1(C)C (configuration not stated)	N
O=[N+]([O-])c1cccnc1Oc1ccc(Cl)cc1	Y
COc1ccc(-c2cc(=O)c3c(O)cc(O)cc3o2)cc1O	Y
CC(=O)N1CCN(c2ccc(OC[C@H]3CO[C@](Cn4ccnc4)(c4ccc(Cl)cc4Cl)O3)cc2)CC1	Y
COC(=O)CC1C(C)(C)C(OC(C)=O)[C@@H]2[C@@H](OC(C)=O)[C@]34O[C@@]2(O)[C@]1(C)C3CC[C@]1(C)C4=CC(=O)O[C@H]1c1ccoc1 (some centres not stated)	N
COC(CNc1cccc(Cl)c1C#N)OC	Y

Ask: Lab note: normalized growth threshold 1. Does this compound come in strictly under it? COc1ccc([N+](=O)[O-])c(OC)c1C(N)=O
Result: N

Ask: Lab note: normalized growth threshold 1. Does this compound come in strictly under it? Cc1ccc(OS(=O)(=O)c2ccc(Cl)cc2)c([N+](=O)[O-])n1
Result: Y

----------
Experiment: chemical genetic growth profiling, strain panel (AID 1159580);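 further: tested at 20 µM; growth read once vehicle control cultures reached saturation at 30 °C; 1 = growth at the plate median or of vehicle wells; lower values mean less growth of the strain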
Conditions: S. cerevisiae deletion strains, growth OD, locus YER002W, strain NOP16, active compounds read low
In all, about 5,500 compounds went through this assay and about 2,000 (36%) were called active. About 18% were inconclusive and are not listed. Some of the results follow.
quantity: normalized growth
One number for each entry.

Reference set, count: 3
O=C(O)CCC(=O)N1CCCC1C(=O)O (stereo not drawn)	1.01
NC(=O)c1cc(N2CC2)c([N+](=O)[O-])cc1[N+](=O)[O-]	1.02
Cc1nc(N=Nc2cc(S(=O)(=O)O)c3cc([N+](=O)[O-])cc(S(=O)(=O)O)c3c2)c(COP(=O)(O)O)c(C=O)c1O	1.02

List reported normalized growth for each of these compounds:
1. Cc1ccc(OCC(O)C(C)NC(C)C)c2c1CCC2 (stereo not drawn)
2. Cn1c(=O)c2[nH]c(-c3ccc(S(=O)(=O)O)cc3)nc2n(C)c1=O
3. NCCS(=O)O
4. CC(=O)NC(CS)C(=O)O (stereo not drawn)
5. COc1ccccc1N1CCN(CCN(C(=O)c2ccc(F)cc2)c2ccccn2)CC1
6. O=C(O)CN(CCOCCOCCN(CC(=O)O)CC(=O)O)CC(=O)O
7. CP(=O)(O)CCCN
8. O=C(CCCN1CCC(O)(c2ccc(Cl)cc2)CC1)c1ccc(F)cc1

Result:
0.977
1.01
1
0.994
1.01
0.996
0.994
1.01

List reported normalized growth for each of these compounds:
1. O=C(O)C1=CC(=C(c2ccc(O)c(C(=O)O)c2)c2ccc(O)c(C(=O)O)c2)C=CC1=O
2. O=C(O)CN(CCN(CC(=O)O)CC(=O)O)CCN(CC(=O)O)CC(=O)O
3. O=C1CC2(CCCC2)CC(=O)N1CCCCN1CCN(c2ncccn2)CC1
4. CC(C)c1cccc(C(C)C)c1O
5. CCNC(=O)N1CCN(CCCC(c2ccc(F)cc2)c2ccc(F)cc2)CC1
6. N#CC(=C(\N)Sc1ccccc1N)/C(C#N)=C(/N)Sc1ccccc1N

Result:
1. 1.02
2. 1.01
3. 1.01
4. 0.986
5. 1
6. 1

Measured normalized growth, CC(=O)O[C@]1(C(C)=O)CC[C@H]2[C@@H]3C=C(Cl)C4=CC(=O)[C@@H]5C[C@@H]5[C@]4(C)[C@H]3CC[C@@]21C : 1.02

----------
Experiment: chemical genetic growth profiling, strain panel (AID 1159580);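 further: tested at 20 µM; growth read once vehicle control cultures reached saturation at 30 °C; 1 = growth at the plate median or of vehicle wells; lower values mean less growth of the strain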
Details: S. cerevisiae deletion strains, growth OD, locus YKL068W
In all, about 5,500 compounds went through this assay and about 2,000 (36%) were called active. Not shown: some 18% with an inconclusive outcome. Rule as the data show it: active = normalized growth mostly below about 0.91 (no sharp cut-off); inconclusive = no clear call, values can overlap the other calls; inactive = mostly above about 0.92. The list shows a part of the results.
The categories you may choose from are yes for active, no for inactive

Worked cases, answers included:
CN(C)C(=O)C(CCN1CCC(O)(c2ccc(Cl)cc2)CC1)(c1ccccc1)c1ccccc1	no
C[C@H]1OC(O[C@H]2[C@@H](O)CC(O[C@H]3[C@@H](O)C[C@H](O[C@H]4CC[C@]5(C)C6CC[C@]7(C)[C@@H](C8=CC(=O)OC8)[C@@H](O)C[C@]7(O)[C@@H]6CC[C@@H]5C4)O[C@@H]3C)O[C@@H]2C)C[C@H](O)C1O (stereo partly drawn)	no
COC(=O)NC(=S)Nc1ccccc1NC(=S)NC(=O)OC	no
COC(=O)CC1C(C)(C)C(OC(C)=O)[C@@H]2[C@@H](OC(C)=O)[C@]34O[C@@]2(O)[C@]1(C)C3CC[C@]1(C)C4=CC(=O)O[C@H]1c1ccoc1 (stereo partly drawn)	no
CC[C@@]1(O)C(=O)OCc2c1cc1n(c2=O)Cc2cc3cc(O)ccc3nc2-1	no
C[C@@H]1O[C@@H](O[C@H]2CC[C@]3(C=O)C4CC[C@]5(C)[C@@H](C6=CC(=O)OC6)CC[C@]5(O)C4CC[C@]3(O)C2)[C@H](O)[C@H](O)[C@H]1O (stereo partly drawn)	no
O=c1c(O)cc([C@H]2Oc3cc(O)cc(O)c3C[C@H]2O)cc2c([C@H]3Oc4cc(O)cc(O)c4C[C@H]3O)cc(O)c(O)c12	no
NC[C@H]1O[C@H](OC2[C@@H](N)C[C@@H](N)[C@H](O[C@H]3O[C@H](CO)[C@@H](O)[C@H](N)[C@H]3O)[C@H]2O)[C@H](O)[C@@H](O)[C@@H]1O (stereo partly drawn)	no
COc1cccc2c1CCC1=CC(=O)CC[C@@]12C	no
CC12CCC3C(CCC4(O)CC(O)CCC34/C=N/NC(N)=O)C1(O)CCC2C1=CC(=O)OC1 (stereo not drawn)	no

Ask: Which result was noted for this compound in the test: Nc1ccc(S(=O)(=O)Nc2ncccn2)cc1
Result: no

Ask: Which result was noted for this compound in the test: COc1c(O)cc2c(c1O)[C@H]1O[C@H](CO)[C@@H](O)[C@H](O)[C@@H]1OC2=O
Result: no

Ask: Which result was noted for this compound in the test: C[C@@H]1CCC2[C@](C)(CO)[C@@H](O)CC[C@]2(C)[C@@]12CC[C@@](CO)(CCO)O2 (stereo partly drawn)
Result: no
